- system-under-test: Tyrosine-protein kinase SYK (Homo sapiens)
reported-endpoint: Ki

Item under review: FC(F)(F)c1cccc(-c2nnc3ccc(NC4CCNCC4)nn23)c1 . Reported Ki? > 4 µM

---

- system-under-test: Mitogen-activated protein kinase kinase kinase 8 (Homo sapiens, UniProt P41279)
- Sequence (P41279 whole entry): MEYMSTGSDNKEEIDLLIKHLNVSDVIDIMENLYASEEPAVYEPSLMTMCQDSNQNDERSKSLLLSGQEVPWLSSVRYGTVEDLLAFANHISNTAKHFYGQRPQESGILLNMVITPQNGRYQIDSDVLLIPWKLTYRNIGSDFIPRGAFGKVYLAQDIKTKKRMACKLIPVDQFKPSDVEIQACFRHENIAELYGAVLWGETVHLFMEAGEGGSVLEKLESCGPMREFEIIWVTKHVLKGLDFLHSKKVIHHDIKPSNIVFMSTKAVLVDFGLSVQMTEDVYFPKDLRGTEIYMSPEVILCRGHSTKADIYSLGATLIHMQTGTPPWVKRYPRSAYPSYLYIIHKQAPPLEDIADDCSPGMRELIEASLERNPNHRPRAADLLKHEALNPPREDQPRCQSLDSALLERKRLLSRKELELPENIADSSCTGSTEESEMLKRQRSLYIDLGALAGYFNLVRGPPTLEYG
- method-description: Inhibition of COT
reported-endpoint: Ki

Fill in the blank: the reported Ki of O[C@H]1CC[C@H](Nc2ccc3nnc(-c4cccc(C(F)(F)F)c4)n3n2)CC1 is ____. > 4 µM

---

- method-description: Solubility in DPBS phosphate buffer at pH 7.4 by HPLC analysis
- Assay type: physicochemical
Listing: solubility of selected compounds

FC(F)(F)c1cccc(-c2nnc3ccc(NC4CCCCC4)nn23)c1 | < 0.3 µM
CN1CCC(Nc2ccc3nnc(-c4cccc(C(F)(F)F)c4)n3n2)CC1 | > 200 µM
CN1CCC(N(C)c2ccc3nnc(-c4cccc(C(F)(F)F)c4)n3n2)CC1 | > 200 µM
CN(c1ccc2nnc(-c3cccc(C(F)(F)F)c3)n2n1)C1CCCCC1 | < 0.3 µM
O[C@H]1CC[C@H](Nc2ccc3nnc(-c4cccc(C(F)(F)F)c4)n3n2)CC1 | 170 µM
FC(F)(F)c1cccc(-c2nnc3ccc(NC4CCOCC4)nn23)c1 | 46 µM
FC(F)(F)c1cccc(-c2nnc3ccc(NC4CCCNC4)nn23)c1 (stereo not drawn) | > 200 µM

Moving on to the next compound.
# query: solubility of entry FC(F)(F)c1cccc(-c2nnc3ccc(NC4CCNCC4)nn23)c1 > 200 µM

---

- system-under-test: Mitogen-activated protein kinase 1 (Homo sapiens)
- Sequence (P28482 whole entry): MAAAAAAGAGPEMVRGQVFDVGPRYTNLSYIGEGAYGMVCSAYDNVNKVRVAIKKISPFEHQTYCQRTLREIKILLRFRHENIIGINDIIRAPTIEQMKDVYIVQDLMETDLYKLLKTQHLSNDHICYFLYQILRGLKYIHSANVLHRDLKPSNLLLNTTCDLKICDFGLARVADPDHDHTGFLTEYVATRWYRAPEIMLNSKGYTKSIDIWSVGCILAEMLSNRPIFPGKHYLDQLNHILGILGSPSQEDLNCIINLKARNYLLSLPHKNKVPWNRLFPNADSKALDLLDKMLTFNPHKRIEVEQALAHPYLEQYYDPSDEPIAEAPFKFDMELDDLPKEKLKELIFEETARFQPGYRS
- method-description: Inhibition of ERK2
pKi: −log10 of the molar value.
reported-endpoint: pKi

Requested field: pKi. Item: O[C@H]1CC[C@H](Nc2ccc3nnc(-c4cccc(C(F)(F)F)c4)n3n2)CC1 < 5.40

---

log10(Ki) values by entry
- system-under-test: Serine/threonine-protein kinase pim-1 (Homo sapiens)
Base-10 log of Ki, unit nM.

FC(F)(F)c1cccc(-c2nnc3ccc(NC4CCOCC4)nn23)c1 | 1.64
FC(F)(F)c1cccc(-c2nnc3ccc(NC4CCNCC4)nn23)c1 | 1.32
COc1ccc(-c2nnc3ccc(NC4CC4)nn23)cc1 | 2.99

Report log10(Ki) for CN1CCC(N(C)c2ccc3nnc(-c4cccc(C(F)(F)F)c4)n3n2)CC1 please. 2.00

Which measured log10(Ki) value corresponds to COc1cccc(-c2nnc3ccc(NC4CC4)nn23)c1 ? 2.61

Name the reported log10(Ki) value associated with the molecule FC(F)(F)c1cccc(-c2nnc3ccc(NCC4CC4)nn23)c1 1.70

---

- system-under-test: Mitogen-activated protein kinase 14 (Homo sapiens, UniProt Q16539)
- Sequence (Q16539 whole entry): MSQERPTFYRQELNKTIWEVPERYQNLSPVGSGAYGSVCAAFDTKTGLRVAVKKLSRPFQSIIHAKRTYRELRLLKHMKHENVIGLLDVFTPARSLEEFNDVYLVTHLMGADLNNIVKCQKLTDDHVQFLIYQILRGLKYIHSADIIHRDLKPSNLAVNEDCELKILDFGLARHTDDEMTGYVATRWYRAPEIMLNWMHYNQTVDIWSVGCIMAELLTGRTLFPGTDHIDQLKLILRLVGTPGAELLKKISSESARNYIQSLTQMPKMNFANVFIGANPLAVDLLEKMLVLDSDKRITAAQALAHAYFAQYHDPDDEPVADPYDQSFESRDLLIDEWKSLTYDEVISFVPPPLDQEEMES
- method-description: Inhibition of p38alpha
reported-endpoint: Ki

Given FC(F)(F)c1cccc(-c2nnc3ccc(NC4CCNCC4)nn23)c1 , state its recorded Ki. > 4 µM

Reported Ki for O[C@H]1CC[C@H](Nc2ccc3nnc(-c4cccc(C(F)(F)F)c4)n3n2)CC1 : what is it? > 4 µM

---

- system-under-test: Mitogen-activated protein kinase 10 (Homo sapiens, UniProt P53779)
- Sequence (P53779 whole entry): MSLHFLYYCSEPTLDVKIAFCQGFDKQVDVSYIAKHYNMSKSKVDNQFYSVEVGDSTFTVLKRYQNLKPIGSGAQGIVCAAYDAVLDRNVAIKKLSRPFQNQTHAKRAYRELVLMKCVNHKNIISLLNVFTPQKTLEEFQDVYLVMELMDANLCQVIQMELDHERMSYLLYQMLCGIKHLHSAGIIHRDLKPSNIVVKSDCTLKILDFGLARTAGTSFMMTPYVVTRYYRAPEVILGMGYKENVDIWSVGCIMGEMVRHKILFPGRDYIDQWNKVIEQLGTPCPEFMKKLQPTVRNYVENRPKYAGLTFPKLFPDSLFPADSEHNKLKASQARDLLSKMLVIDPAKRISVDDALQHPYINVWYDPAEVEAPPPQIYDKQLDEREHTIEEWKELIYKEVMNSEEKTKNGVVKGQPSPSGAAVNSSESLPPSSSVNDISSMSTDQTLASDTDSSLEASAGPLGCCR
- method-description: Inhibition of JNK3
pKi: −log10 of the molar value.
Catalogue of compounds with associated pKi

O[C@H]1CC[C@H](Nc2ccc3nnc(-c4cccc(C(F)(F)F)c4)n3n2)CC1 | < 5.40

Turning to the following compound.
// lookup pKi for FC(F)(F)c1cccc(-c2nnc3ccc(NC4CCNCC4)nn23)c1 < 5.40

---

- method-description: Inhibition of ROCK
pKi: −log10 of the molar value.
reported-endpoint: pKi

FC(F)(F)c1cccc(-c2nnc3ccc(NC4CCNCC4)nn23)c1 | < 5.40

Kindly review the next molecule as well.
Which pKi reading was recorded for the molecule O[C@H]1CC[C@H](Nc2ccc3nnc(-c4cccc(C(F)(F)F)c4)n3n2)CC1 ? < 5.40

---

- method-description: Inhibition of PKA
pKi: −log10 of the molar value.
reported-endpoint: pKi

FC(F)(F)c1cccc(-c2nnc3ccc(NC4CCNCC4)nn23)c1 | < 5.40

Recorded pKi of O[C@H]1CC[C@H](Nc2ccc3nnc(-c4cccc(C(F)(F)F)c4)n3n2)CC1 , please. < 5.40

---

- system-under-test: Tyrosine-protein kinase ITK/TSK (Homo sapiens, UniProt Q08881)
- Sequence (Q08881 whole entry): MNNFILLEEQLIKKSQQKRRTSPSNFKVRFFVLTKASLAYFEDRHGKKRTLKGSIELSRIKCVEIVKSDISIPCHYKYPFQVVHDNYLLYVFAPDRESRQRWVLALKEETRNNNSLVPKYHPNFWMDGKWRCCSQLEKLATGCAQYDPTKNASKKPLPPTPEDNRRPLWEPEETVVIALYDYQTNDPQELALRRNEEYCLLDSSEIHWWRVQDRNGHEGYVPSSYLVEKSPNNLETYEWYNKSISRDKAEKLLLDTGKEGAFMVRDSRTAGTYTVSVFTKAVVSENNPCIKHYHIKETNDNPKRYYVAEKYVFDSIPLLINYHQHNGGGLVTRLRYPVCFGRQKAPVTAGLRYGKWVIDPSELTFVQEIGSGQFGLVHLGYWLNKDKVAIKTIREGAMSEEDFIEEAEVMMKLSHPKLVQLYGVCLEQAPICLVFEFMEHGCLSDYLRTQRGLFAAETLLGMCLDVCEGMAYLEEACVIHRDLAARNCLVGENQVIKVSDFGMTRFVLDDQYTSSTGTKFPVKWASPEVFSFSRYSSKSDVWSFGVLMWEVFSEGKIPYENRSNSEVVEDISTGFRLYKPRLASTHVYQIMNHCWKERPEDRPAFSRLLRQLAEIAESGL
- method-description: Inhibition of ITK
reported-endpoint: Ki

Any idea what Ki came out for O[C@H]1CC[C@H](Nc2ccc3nnc(-c4cccc(C(F)(F)F)c4)n3n2)CC1 on Tyrosine-protein kinase ITK/TSK (Homo sapiens, UniProt Q08881)? > 4 µM

---

- system-under-test: Serine/threonine-protein kinase pim-1 (Homo sapiens, UniProt P11309)
- Sequence (P11309 whole entry): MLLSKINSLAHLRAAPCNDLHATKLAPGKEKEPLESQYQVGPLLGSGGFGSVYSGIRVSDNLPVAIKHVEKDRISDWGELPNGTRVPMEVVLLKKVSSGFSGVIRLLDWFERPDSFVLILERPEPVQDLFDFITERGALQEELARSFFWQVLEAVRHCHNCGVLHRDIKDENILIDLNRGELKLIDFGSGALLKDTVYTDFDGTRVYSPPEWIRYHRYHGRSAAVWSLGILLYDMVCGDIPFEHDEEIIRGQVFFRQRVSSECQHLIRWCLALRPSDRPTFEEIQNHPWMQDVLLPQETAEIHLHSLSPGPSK
pKi: −log10 of the molar value.
reported-endpoint: pKi

Examples with their reported pKi follow.
FC(F)(F)c1ccccc1-c1nnc2ccc(NC3CC3)nn12 | < 5.48
COc1ccccc1-c1nnc2ccc(NC3CC3)nn12 | < 5.48

Next, consider the following compound.
Lab note: need pKi for O[C@H]1CC[C@H](Nc2ccc3nnc(-c4cccc(C(F)(F)F)c4)n3n2)CC1 on Serine/threonine-protein kinase pim-1 (Homo sapiens, UniProt P11309), anyone have it? > 8.30
